Target: E3 ubiquitin-protein ligase Mdm2 (Homo sapiens, UniProt Q00987, L33E)
Sequence (Q00987 whole entry L33E, the tested form may be a part): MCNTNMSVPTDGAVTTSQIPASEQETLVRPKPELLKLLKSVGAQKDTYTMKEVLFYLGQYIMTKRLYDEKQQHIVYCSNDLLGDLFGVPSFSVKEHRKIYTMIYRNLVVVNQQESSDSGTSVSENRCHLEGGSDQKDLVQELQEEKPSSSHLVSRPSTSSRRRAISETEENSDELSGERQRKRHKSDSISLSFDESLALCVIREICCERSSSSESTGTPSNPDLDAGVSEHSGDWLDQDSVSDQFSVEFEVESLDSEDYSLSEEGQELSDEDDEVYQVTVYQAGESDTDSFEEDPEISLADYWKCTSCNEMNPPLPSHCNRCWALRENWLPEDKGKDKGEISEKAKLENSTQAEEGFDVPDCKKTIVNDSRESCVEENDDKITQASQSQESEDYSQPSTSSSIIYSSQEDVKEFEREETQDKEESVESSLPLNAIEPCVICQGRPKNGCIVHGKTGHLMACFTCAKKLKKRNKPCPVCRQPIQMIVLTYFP
Experiment: Inhibition of human His-tagged p53 (1 to 132 amino acid residues)/GST-tagged MDM2 L33E mutant (25 to 108 amino acid residues) interaction by HTRF assay
readoutName: pIC50
Value format note: pIC50 is -log10 of concentration (mol/L); just state the number.

Query: Given `CC(C)C1=C(C(=O)N2CC[C@H]2C(=O)N(C)C)SC2=N[C@@](C)(c3ccc(Cl)cc3)[C@@H](c3ccc(Cl)cc3)N21` , respond with its pIC50.
Response: 6.85

###

Biological target: Tumour suppressor p53/oncoprotein Mdm2 (Homo sapiens, UniProt Q00987)
Sequence (P04637 whole entry): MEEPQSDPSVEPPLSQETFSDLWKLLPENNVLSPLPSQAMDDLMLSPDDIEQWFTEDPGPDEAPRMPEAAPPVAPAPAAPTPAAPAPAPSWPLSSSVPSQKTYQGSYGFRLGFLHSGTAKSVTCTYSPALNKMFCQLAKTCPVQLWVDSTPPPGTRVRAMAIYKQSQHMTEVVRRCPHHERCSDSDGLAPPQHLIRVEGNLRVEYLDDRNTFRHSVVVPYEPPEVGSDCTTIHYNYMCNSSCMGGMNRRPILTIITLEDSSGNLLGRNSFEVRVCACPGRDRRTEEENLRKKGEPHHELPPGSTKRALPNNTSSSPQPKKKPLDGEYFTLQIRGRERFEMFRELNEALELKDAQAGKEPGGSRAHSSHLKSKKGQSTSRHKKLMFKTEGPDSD
Sequence (Q00987 whole entry): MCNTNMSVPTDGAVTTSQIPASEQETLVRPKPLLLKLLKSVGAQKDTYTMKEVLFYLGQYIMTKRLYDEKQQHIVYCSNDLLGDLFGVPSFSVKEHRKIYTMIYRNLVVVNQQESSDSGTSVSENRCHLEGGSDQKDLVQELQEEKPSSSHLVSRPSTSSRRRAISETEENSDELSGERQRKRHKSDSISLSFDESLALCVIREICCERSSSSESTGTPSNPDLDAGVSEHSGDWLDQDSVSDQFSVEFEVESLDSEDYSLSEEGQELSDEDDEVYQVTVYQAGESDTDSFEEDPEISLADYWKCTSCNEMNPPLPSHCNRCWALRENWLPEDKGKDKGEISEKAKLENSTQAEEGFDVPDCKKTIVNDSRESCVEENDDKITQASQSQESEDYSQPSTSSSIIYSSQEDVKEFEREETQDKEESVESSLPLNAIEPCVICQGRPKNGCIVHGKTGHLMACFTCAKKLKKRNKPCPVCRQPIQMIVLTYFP
Assay: Inhibition of human His-tagged p53/GST-tagged MDM2 interaction after 60 mins by chemiluminescence assay
readoutName: pIC50
Value format note: pIC50 is -log10 of concentration (mol/L); just state the number.

{"compound": "COCCN(C)C(=O)[C@@H]1CCCN1C(=O)C1=C(C(C)C)N2C(=N[C@@](C)(c3ccc(Cl)cc3)[C@H]2c2ccc(Cl)cc2)S1", "readoutName": "pIC50", "reading": 7.34}
{"compound": "CC(C)C1=C(C(=O)N2CCC[C@H]2C(=O)N2CCN(C)CC2)SC2=N[C@@](C)(c3ccc(Cl)cc3)[C@@H](c3ccc(Cl)cc3)N21", "readoutName": "pIC50", "reading": 7.64}
{"compound": "CC(C)C1=C(C(=O)N2CCNC(=O)C2)SC2=N[C@@](C)(c3ccc(Cl)cc3)[C@@H](c3ccc(Cl)cc3)N21", "readoutName": "pIC50", "reading": 7.04}

Next item in the queue.
Query: Given CC(C)C1=C(C(=O)N2CNC(=O)C2)SC2=NC(C)(c3ccc(Cl)cc3)C(c3ccc(Cl)cc3)N21 (racemic) , respond with its pIC50.
Response: 6.03
